molecular target: mouse TMEM16A mutant Y598A (Mus musculus, UniProt Q8BHY3, Y598A); construct: expressed in transfected cells; host or cells: HEK293T; assay: Inside-out patch recording of 1PBC block, mutant Y598A; type: cell-based; conditions: Y598A; V -120 mV
Sequence (Q8BHY3 whole entry Y598A): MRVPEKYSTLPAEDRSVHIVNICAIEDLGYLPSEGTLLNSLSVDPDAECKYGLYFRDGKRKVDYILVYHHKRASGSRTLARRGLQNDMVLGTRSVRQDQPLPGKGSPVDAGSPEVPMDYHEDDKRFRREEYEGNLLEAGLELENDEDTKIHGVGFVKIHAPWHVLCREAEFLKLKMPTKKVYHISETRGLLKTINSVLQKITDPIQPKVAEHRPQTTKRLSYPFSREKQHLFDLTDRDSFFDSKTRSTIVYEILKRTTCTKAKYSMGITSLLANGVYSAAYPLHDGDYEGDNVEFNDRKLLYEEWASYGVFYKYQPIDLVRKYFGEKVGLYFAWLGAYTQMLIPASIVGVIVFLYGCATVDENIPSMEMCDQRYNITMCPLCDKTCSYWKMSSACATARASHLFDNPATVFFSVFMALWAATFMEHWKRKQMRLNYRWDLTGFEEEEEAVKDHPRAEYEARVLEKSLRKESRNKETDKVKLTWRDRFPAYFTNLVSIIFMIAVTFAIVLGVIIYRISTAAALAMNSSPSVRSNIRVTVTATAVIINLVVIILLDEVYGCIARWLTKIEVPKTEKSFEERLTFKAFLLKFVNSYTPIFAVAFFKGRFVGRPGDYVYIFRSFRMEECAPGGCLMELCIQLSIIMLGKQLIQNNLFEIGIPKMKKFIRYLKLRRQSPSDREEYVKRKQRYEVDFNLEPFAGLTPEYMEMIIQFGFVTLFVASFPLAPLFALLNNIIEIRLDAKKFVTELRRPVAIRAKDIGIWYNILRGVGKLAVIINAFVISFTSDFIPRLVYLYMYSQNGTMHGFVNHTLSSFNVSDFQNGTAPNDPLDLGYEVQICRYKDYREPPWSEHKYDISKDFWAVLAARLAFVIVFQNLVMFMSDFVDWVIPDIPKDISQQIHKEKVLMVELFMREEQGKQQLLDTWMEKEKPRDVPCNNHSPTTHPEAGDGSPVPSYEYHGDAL
ASSAY_METRIC: pIC50
In simple prose, pIC50 is minus the logarithm base ten of a concentration in moles per litre.

For the compound shown here, N#Cc1c(C(F)(F)F)cc(O)n2c1nc1ccccc12 [1PBC] , give the reported pIC50.
4.80

* * *

target: mouse TMEM16A mutant I516A (Mus musculus, UniProt Q8BHY3, I516A); construct: expressed in transfected cells; host or cells: HEK293T; test: Inside-out patch recording of 1PBC block, mutant I516A; type: cell-based; details: I516A; V -60 mV
Sequence (Q8BHY3 whole entry I516A): as the sequence (Q8BHY3 whole entry Y598A) above, with I516A, A598Y counted along it
ASSAY_METRIC: IC50
For clarity, give the value followed by its unit.

Value wanted: IC50 (mouse TMEM16A mutant I516A (Mus musculus, UniProt Q8BHY3, I516A)) of entry N#Cc1c(C(F)(F)F)cc(O)n2c1nc1ccccc12 [1PBC]
9.65 µM
